- system-tested: human GST-PIKFYVE (Homo sapiens)
- Construct: GST; purchased Carna biosciences 11-118
- Sequence (Q9Y2I7 whole entry): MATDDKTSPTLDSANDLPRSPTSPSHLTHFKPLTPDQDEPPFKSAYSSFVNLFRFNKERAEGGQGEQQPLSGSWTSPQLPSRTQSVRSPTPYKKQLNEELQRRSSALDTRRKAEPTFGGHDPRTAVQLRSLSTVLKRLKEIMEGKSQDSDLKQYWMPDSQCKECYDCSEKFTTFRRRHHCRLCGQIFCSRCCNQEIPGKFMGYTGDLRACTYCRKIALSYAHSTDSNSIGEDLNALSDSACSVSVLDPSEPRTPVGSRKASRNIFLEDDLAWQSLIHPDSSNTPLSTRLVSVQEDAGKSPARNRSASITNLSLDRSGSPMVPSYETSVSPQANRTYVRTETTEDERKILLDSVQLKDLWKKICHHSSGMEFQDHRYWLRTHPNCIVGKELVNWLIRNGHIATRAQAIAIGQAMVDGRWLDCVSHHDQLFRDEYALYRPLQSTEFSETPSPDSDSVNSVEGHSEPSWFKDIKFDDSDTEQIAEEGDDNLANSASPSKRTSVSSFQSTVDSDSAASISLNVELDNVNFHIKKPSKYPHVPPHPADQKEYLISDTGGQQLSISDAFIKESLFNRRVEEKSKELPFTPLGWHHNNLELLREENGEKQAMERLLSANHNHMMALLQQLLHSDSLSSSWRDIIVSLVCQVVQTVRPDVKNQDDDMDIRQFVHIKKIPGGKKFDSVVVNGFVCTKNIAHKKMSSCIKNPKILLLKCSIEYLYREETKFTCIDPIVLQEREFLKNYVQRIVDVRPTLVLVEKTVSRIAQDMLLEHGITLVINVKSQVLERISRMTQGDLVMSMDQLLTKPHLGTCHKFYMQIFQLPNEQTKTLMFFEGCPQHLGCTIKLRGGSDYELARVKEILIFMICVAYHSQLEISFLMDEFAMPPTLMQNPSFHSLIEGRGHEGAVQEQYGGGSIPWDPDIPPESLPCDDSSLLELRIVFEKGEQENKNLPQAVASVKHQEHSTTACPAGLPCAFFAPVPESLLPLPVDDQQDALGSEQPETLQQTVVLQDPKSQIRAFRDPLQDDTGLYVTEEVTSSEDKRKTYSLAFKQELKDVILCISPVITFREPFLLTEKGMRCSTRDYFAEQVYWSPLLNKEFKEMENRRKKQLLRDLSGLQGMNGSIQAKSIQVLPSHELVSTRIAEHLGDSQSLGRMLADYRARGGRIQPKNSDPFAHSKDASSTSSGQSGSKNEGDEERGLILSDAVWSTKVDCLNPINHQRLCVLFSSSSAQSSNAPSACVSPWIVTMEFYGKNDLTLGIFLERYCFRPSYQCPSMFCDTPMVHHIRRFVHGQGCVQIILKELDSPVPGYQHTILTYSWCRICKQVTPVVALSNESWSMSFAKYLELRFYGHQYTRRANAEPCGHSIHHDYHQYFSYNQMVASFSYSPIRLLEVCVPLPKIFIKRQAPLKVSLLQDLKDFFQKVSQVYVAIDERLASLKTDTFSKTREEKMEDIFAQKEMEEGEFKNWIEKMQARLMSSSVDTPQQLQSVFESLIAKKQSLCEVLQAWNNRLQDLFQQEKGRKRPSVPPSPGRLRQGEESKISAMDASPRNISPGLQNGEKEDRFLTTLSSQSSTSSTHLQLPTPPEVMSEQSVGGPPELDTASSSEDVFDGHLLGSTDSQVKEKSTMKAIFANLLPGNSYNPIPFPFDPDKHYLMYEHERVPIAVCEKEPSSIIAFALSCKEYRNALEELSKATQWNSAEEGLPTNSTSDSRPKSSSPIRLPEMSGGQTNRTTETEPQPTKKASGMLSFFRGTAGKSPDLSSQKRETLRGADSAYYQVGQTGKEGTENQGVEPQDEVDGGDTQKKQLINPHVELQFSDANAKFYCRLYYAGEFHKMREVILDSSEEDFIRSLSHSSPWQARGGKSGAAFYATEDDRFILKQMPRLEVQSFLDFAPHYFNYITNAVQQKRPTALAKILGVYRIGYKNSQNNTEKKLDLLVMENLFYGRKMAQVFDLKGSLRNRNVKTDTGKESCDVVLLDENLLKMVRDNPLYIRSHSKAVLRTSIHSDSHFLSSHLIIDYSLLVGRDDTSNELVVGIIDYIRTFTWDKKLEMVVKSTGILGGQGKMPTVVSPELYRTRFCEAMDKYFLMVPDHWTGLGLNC
- assay-text: ADP-Glo kinase assay, enzyme inhibition activity against human PIKFYVE (Carna biosciences)
- Type: biochemical
- measurement-setup: inhibitory activity at final compound concentration 10 nM; 1 hour at room temperature
outcome-measure: ADP-Glo kinase assay (%, 10 nM) (%)

>>> print(df.to_string())
                           smiles_structure  unit_symbol  assay_result
0  Cc1cccc(/C=N/Nc2nc(N3CCOCC3)nc3c(-c4cnn(C)c4)cccc23)c1            %         94.99
1  Cc1ccc(C(=O)Cn2cnc3c(N/N=C/c4cccc(C)c4)nc(N4CCOCC4)nc32)cc1            %         81.60
2  Cc1cccc(/C=N/Nc2nc(N3CCOCC3)nc3c2ncn3CC2(C)COC2)c1            %         69.71
3  Cc1cccc(/C=N/Nc2nc(N3CCOCC3)nc3c2ncn3Cc2ccccn2)c1            %         78.53

---

- assay-text: Microsomal metabolic stability assay
- Type: in vitro ADME, human or CD1 male mouse
- measurement-setup: Clint class; 1 μM compound, 0.5 mg/ml microsomes, NADPH, UDPGA, Alamethicin; species not given
outcome-measure: Microsomal metabolic stability

Consider the reported Microsomal metabolic stability for these molecules:
>>> df
                                   molecule                 outcome_measure             assay_result
0  Cc1cccc(/C=N/Nc2nc(N3CCOCC3)nc3c(-c4ccncc4)cccc23)c1 [Example 212]  Microsomal metabolic stability          Low (Low <8.8,)
1  O=C(Cn1cnc2c(N/N=C/c3c[nH]c4ccccc34)nc(N3CCOCC3)nc21)c1ccccn1 [Example 24]  Microsomal metabolic stability  Medium (Medium 8.8~48,)
2  Cc1ccc(C(=O)Cn2cnc3c(N/N=C/c4cccc(C)c4)nc(N4CCOCC4)nc32)cc1 [Example 42]  Microsomal metabolic stability          Low (Low <8.8,)
3  Cc1cccc(/C=N/Nc2nc(N3CCOCC3)nc3c2ncn3C2CN(S(C)(=O)=O)C2)c1 [Example 85]  Microsomal metabolic stability  Medium (Medium 8.8~48,)
4  Cc1cccc(/C=N/Nc2nc(N3CCOCC3)nc3c2ncn3-c2ccnc(C(F)(F)F)c2)c1 [Example 139]  Microsomal metabolic stability                      low

[in] Please report the recorded Microsomal metabolic stability for Cc1cccc(/C=N/Nc2nc(N3CCOCC3)nc3c2ncn3-c2sc(C)nc2C)c1 [Example 111] .
[out] Medium (Medium 8.8~48,)

[in] I am curious: what Microsomal metabolic stability value has been reported for C(=N\Nc1nc(N2CCOCC2)nc2c1ncn2-c1ccccc1)/c1c[nH]c2ccccc12 [Example 132] ?
[out] Medium (Medium 8.8~48,)
